test_target: IL-23 (human, p19/p40 heterodimer) (Homo sapiens, UniProt Q9NPF7;P29460 SEQ:20-189,SEQ:23-328)
Sequence (Q9NPF7 20-189, chain 1 of 2): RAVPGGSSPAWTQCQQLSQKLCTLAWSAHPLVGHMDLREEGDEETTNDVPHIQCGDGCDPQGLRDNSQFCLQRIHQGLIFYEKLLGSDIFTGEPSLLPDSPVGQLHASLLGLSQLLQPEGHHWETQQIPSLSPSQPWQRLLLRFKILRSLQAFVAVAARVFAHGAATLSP
Sequence (P29460 23-328, chain 2 of 2): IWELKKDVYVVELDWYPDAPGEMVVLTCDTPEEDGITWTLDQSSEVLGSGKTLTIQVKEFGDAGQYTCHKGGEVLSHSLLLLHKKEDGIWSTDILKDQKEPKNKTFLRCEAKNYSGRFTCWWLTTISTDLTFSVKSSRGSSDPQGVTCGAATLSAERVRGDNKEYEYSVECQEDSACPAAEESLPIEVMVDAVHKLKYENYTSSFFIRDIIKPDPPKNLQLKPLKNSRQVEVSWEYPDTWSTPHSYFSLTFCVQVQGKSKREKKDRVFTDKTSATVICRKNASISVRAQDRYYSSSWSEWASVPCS
method_notes: cell_activity; IL-23/IL-18 induced IFN-gamma, PHA blasts
condition_notes: tags: R&D Systems, carrier free
pIC50: −log10 of the molar value.
property_name: pIC50

Please report the recorded pIC50 for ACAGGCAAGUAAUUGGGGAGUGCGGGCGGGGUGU (mixed, ARC1623 with 5' 40 kDa PEG; 3'-idT) [ARC1988] .
~8.40
